target: T1, human MCH-1R (human, UniProt Q99705 1-353); experiment: SPA, displacement of [125I]-[Phe13,Tyr19]-hMCH, CHO/MCH-1R membranes
T1 construct: Function: 293AEQ17/MCH-1R cells; also called hMCH-1R
T1 sequence (Q99705 whole entry): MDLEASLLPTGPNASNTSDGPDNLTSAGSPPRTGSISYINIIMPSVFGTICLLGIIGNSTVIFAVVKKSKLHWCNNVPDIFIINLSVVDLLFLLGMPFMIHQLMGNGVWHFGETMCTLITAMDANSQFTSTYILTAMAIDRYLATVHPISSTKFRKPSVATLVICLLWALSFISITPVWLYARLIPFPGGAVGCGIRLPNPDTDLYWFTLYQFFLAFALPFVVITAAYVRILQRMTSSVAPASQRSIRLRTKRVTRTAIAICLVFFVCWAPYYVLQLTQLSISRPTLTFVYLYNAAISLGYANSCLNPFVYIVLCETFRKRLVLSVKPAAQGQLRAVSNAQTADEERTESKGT
Positions of bridges follow the written chain, without caps; N, C: chain ends.
Form field: pIC50 (one value per entry).
The meaning of pIC50 here: minus log10 of the concentration in molar units.

binder	pIC50
XCMLNRVYRPC (HELM PEPTIDE1{[ac].[dR].C.M.L.N.R.V.Y.R.P.C.[am]}$PEPTIDE1,PEPTIDE1,3:R3-12:R3$$$V2.0; SMILES CSCC[C@@H]1NC(=O)[C@@H](NC(=O)[C@@H](CCCNC(=N)N)NC(C)=O)CSSC[C@@H](C(N)=O)NC(=O)[C@@H]2CCCN2C(=O)[C@H](CCCNC(=N)N)NC(=O)[C@H](Cc2ccc(O)cc2)NC(=O)[C@H](C(C)C)NC(=O)[C@H](CCCNC(=N)N)NC(=O)[C@H](CC(N)=O)NC(=O)[C@H](CC(C)C)NC1=O) [SEQ. ID. NO. 29 (D-Arg^6, Asn^10 analog of Ac-hMCH(6-16)-NH2)]	9.30
XCXLNRVYRPC (HELM PEPTIDE1{[ac].[dR].C.[Nle].L.N.R.V.Y.R.P.C.[am]}$PEPTIDE1,PEPTIDE1,3:R3-12:R3$$$V2.0; SMILES CCCC[C@@H]1NC(=O)[C@@H](NC(=O)[C@@H](CCCNC(=N)N)NC(C)=O)CSSC[C@@H](C(N)=O)NC(=O)[C@@H]2CCCN2C(=O)[C@H](CCCNC(=N)N)NC(=O)[C@H](Cc2ccc(O)cc2)NC(=O)[C@H](C(C)C)NC(=O)[C@H](CCCNC(=N)N)NC(=O)[C@H](CC(N)=O)NC(=O)[C@H](CC(C)C)NC1=O) [SEQ. ID. NO. 31 (D-Arg^6, Nle^8, Asn^10 analog of Ac-hMCH(6-16)-NH2)]	9.55
XCMLNRVYAPC (HELM PEPTIDE1{[ac].[dR].C.M.L.N.R.V.Y.A.P.C.[am]}$PEPTIDE1,PEPTIDE1,3:R3-12:R3$$$V2.0; SMILES CSCC[C@@H]1NC(=O)[C@@H](NC(=O)[C@@H](CCCNC(=N)N)NC(C)=O)CSSC[C@@H](C(N)=O)NC(=O)[C@@H]2CCCN2C(=O)[C@H](C)NC(=O)[C@H](Cc2ccc(O)cc2)NC(=O)[C@H](C(C)C)NC(=O)[C@H](CCCNC(=N)N)NC(=O)[C@H](CC(N)=O)NC(=O)[C@H](CC(C)C)NC1=O) [SEQ. ID. NO. 33 (D-Arg^6, Asn^10, Ala^14 analog of Ac-hMCH(6-16)-NH2)]	8.49
XCMLQRVYRPC (HELM PEPTIDE1{[ac].[dR].C.M.L.Q.R.V.Y.R.P.C.[am]}$PEPTIDE1,PEPTIDE1,3:R3-12:R3$$$V2.0; SMILES CSCC[C@@H]1NC(=O)[C@@H](NC(=O)[C@@H](CCCNC(=N)N)NC(C)=O)CSSC[C@@H](C(N)=O)NC(=O)[C@@H]2CCCN2C(=O)[C@H](CCCNC(=N)N)NC(=O)[C@H](Cc2ccc(O)cc2)NC(=O)[C@H](C(C)C)NC(=O)[C@H](CCCNC(=N)N)NC(=O)[C@H](CCC(N)=O)NC(=O)[C@H](CC(C)C)NC1=O) [SEQ. ID. NO. 30 (D-Arg^6, Gln^10 analog of Ac-hMCH(6-16)-NH2)]	8.21

Next binder, please.
Quick one: pIC50 for Ac-RCMLGRVYRPC-NH2 (disulfide 2-11 (inferred), also called ID; NO; parent compound) [Ac-hMCH(6-16)-NH2] ?
9.30

The measured values listed here are drawn from patent US20050020492A1.
